The reported measurements were obtained from patent US10124065B2.

Assay: pKa measurement of cationic lipid (TNS fluorescence)
Format: physicochemical
Details: probe TNS; pKa of the cationic lipid of formula (I); Table 4; read-out: pKa
Assignment: determine reported pKa for the given compounds.
Answers are plain numbers.

Could you tell me pKa for each of these compounds? They are listed below.
1. CCCCC/C=C\C/C=C\CCCCCCCC(=O)OCCCCOc1cc(CCCN2CCCCC2)cc(OCCCCOC(=O)CCCCCCC/C=C\C/C=C\CCCCC)c1
2. CCCCC/C=C\C/C=C\CCCCCCCC(=O)Oc1cc(COC(=O)CCN(C)C)cc(OC(=O)CCCCCCC/C=C\C/C=C\CCCCC)c1
3. CCCCCC(CCCCC)CCCCCCCC(=O)OCCCCOc1cc(CN(C)C)cc(OCCCCOC(=O)CCCCCCCC(CCCCC)CCCCC)c1
4. CCCCCCCC(=O)OCC(COC(=O)CCCCCCC)OCCCCOc1cc(CN(C)C)cc(OCCCCOC(COC(=O)CCCCCCC)COC(=O)CCCCCCC)c1

Result ::
1: 6.31; 2: 6.45; 3: 5.97; 4: 5.75
